The reported numbers originate from ChEMBL document CHEMBL2062410.

- Test system: Rattus norvegicus
- Test Protocol: Antiinflammatory activity in Wistar albino rat assessed as inhibition of carrageenan-induced paw edema dosed at 20 mg/kg in plantar region of paw administered 30 mins before carrageenan challenge measured 1.5 hrs post carrageenan-induced inflammation
- Assay type: functional
Reported inhibition in vivo at 20 mg/kg values are given for each entry in this list.
Please state the figure in %; there is no need to write the unit.

Worked cases, inhibition in vivo at 20 mg/kg given:
Cc1ccc([C@H]2CC(c3ccccc3)=NN2c2ncc(Br)cn2)cc1 :: 71
COc1ccc([C@H]2CC(c3ccc(Cl)cc3)=NN2c2ncc(Br)cn2)cc1 :: 64

Recorded inhibition in vivo at 20 mg/kg of `Clc1ccc(C2=NN(c3ncc(Br)cn3)[C@@H](c3ccccc3)C2)cc1` , please. 71
